- measured.target: MDM2 SWIB domain from Channa argus (Channa argus)
- method.summary: fluorescence polarisation; displacement: complex of MDM2 (0.2-2 μM) and FITC-p53TAD_(human)^15–26 (15 nM) displaced by increasing unlabeled p53TAD peptide or p53TAD^full-length; KD calculated from IC50 (Nikolovska-Coleska et al. 2004); 20 mM sodium phosphate pH 7.4, 150 mM NaCl, 1 mM TCEP
Where no end group is shown, it is not given here.
measure.name: pKd
# pKd is unitless: minus log10 of the molar concentration; print number only

Inquiry: Give a short answer stating reported pKd for Ac-SQDSFRELWESVV [Channa argus p53TADP1 p53TAD^15–27] .
Reply text: 5.48
